Catalogue of Mean % WT Binding readings, one per entry.
# TARGET: human CD33 variant I47L (human, UniProt P20138 18-364)
# Sequence (P20138 18-364 I47L limits assumed): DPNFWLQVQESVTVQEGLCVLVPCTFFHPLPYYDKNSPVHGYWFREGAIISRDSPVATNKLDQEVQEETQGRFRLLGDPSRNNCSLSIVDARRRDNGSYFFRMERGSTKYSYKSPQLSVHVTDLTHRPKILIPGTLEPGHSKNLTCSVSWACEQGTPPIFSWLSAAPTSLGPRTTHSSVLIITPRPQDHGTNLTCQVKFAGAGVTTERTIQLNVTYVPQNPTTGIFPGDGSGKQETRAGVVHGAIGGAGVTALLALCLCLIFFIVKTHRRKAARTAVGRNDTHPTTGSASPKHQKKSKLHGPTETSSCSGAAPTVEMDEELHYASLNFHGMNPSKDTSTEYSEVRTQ
# MEASUREMENT_NOTES: flow cytometry, IgG on cells expressing the mutant

Worked cases, Mean % WT Binding given:
Refmab #1 (antibody, human IgG1, V domains shown, Tested in IgG format; human IgG1 (Absolute Antibody hP67.6, Cat. No. Ab00283-10.0); also called hP67.6) VH: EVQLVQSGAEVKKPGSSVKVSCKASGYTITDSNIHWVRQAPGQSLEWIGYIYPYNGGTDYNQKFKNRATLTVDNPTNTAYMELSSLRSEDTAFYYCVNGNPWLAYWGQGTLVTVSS VL: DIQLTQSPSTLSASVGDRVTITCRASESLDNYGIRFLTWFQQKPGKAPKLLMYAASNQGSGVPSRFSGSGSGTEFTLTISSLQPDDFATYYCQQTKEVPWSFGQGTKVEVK
112 % of WT
Refmab #3 (antibody, human IgG1, V domains shown, Tested in IgG format; human IgG1 Fc silent (PG-LALA)) VH: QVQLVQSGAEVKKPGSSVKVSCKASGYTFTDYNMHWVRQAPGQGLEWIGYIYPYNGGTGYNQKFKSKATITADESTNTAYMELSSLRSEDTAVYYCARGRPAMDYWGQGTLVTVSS VL: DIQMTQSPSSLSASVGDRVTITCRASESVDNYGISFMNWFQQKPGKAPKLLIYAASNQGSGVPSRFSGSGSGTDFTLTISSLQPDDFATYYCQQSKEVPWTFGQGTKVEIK
102 % of WT
Refmab #2 (antibody, human IgG1, V domains shown, Tested in IgG format; human IgG1 Fc silent (PG-LALA)) VH: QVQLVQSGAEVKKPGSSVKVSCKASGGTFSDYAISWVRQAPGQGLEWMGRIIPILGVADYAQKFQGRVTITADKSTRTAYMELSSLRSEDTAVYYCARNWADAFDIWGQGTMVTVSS VL: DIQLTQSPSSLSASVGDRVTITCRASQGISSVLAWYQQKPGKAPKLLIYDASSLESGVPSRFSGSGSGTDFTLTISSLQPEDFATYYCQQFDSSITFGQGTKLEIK
2.8 % of WT

# get_value(readout='Mean % WT Binding', item= Refmab #4 (antibody, human IgG1, V domains shown, Tested in IgG format; human IgG1 Fc silent (PG-LALA)) VH: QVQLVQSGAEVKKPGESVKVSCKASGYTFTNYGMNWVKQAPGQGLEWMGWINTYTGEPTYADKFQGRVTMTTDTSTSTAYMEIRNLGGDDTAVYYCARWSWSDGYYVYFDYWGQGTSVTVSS VL: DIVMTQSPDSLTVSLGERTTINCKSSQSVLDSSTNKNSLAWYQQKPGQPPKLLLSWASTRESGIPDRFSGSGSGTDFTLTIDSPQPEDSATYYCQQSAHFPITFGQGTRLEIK ) 88.5 % of WT
